Tested on: β-galactosidase in CMV-LacZ C2C12 myoblasts
EXPERIMENTAL DETAILS: CMV-LacZ secondary screen in C2C12 myoblasts (β-Gal stabilizing assay)
Assay type: cell-based, mouse
CONDITION SET: 20 uM; CMV-LacZ C2C12 myoblasts
A collection of compounds and their measured CMV-LACZ in Myoblasts (β-galactosidase activity relative to DMSO)
RESULT TYPE: CMV-LACZ in Myoblasts (β-galactosidase activity relative to DMSO)

INSERT INTO measurements (compound, readout_value) VALUES
  ('Cn1cc(CN2CCC(C(=O)Nc3cccc(-c4cscn4)c3)CC2)cn1', 0.5323),
  ('CC(O)CNc1nc2c(c(=O)n(Cc3ccc(Br)cc3)c(=O)n2C)n1C (centres unmarked)', 1.2056),
  ('Cc1cc(C)cc(OCC(=O)N/N=C/c2ccccn2)c1', 1.1319),
  ('Cl.O=C1C2CCCN2C(=O)N1CCCN1CCN(c2cccc(Br)c2)CC1 (centres unmarked)', 0.9811),
  ('CCCCN1CC(=O)N2Cc3[nH]c4ccccc4c3C[C@H]2C1=O', 1.2730);
